Please respond with reported relative viability for every item in the list.
test system: NCI-H1563; test: relative viability (nuclei count vs DMSO), 5 days (fraction); higher = more cells survive; conditions: first compound 0.8 µM
Just the number, please.

Recorded relative viability for O=c1[nH]c2ccccc2n1C1CCN(CCCC(c2ccc(F)cc2)c2ccc(F)cc2)CC1 [Pimozide] + Cc1nc(Nc2ncc(C(=O)Nc3c(C)cccc3Cl)s2)cc(N2CCN(CCO)CC2)n1 [Dasatinib] (partner 0.075 µM) with NCI-H1563, please?
0.484

Recorded relative viability for Cc1cnc(-c2cnc(NCCNc3ccc(C#N)cn3)nc2-c2ccc(Cl)cc2Cl)[nH]1 + CCNC(=O)c1noc(-c2cc(C(C)C)c(O)cc2O)c1-c1ccc(CN2CCOCC2)cc1 [Luminespib] (partner 0.01 µM) with NCI-H1563, please?
0.499

Recorded relative viability for Cc1cnc(-c2cnc(NCCNc3ccc(C#N)cn3)nc2-c2ccc(Cl)cc2Cl)[nH]1 + CS(=O)(=O)CCNCc1ccc(-c2ccc3ncnc(Nc4ccc(OCc5cccc(F)c5)c(Cl)c4)c3c2)o1 [Lapatinib] (partner 2 µM) with NCI-H1563, please?
0.963

###

system: NCI-H1703; experiment: relative viability (nuclei count vs DMSO), 5 days (fraction); higher = more cells survive; settings: first compound 0.01581 µM
recorded.endpoint: relative viability
Just the number, please.

# relative viability lookup, item Nc1ccn([C@@H]2O[C@H](CO)[C@@H](O)[C@@H]2O)c(=O)n1 [Cytarabine] + CC1(C)CCC(c2ccc(Cl)cc2)=C(CN2CCN(c3ccc(C(=O)NS(=O)(=O)c4ccc(N[C@H](CCN5CCOCC5)CSc5ccccc5)c(S(=O)(=O)C(F)(F)F)c4)cc3)CC2)C1 [Navitoclax] (partner 0.5 µM)
0.365

# relative viability lookup, item COc1cc2nccc(Oc3ccc(NC(=O)Nc4cc(C)on4)c(Cl)c3)c2cc1OC [Tivozanib] + CS(=O)(=O)CCNCc1ccc(-c2ccc3ncnc(Nc4ccc(OCc5cccc(F)c5)c(Cl)c4)c3c2)o1 [Lapatinib] (partner 2 µM)
0.255

# relative viability lookup, item COc1cc2nccc(Oc3ccc(NC(=O)Nc4cc(C)on4)c(Cl)c3)c2cc1OC [Tivozanib] + C[C@]1(O)C[C@@H](c2nc(-c3ccc4ccc(-c5ccccc5)nc4c3)c3c(N)nccn32)C1 [Linsitinib] (partner 1 µM)
0.254

# relative viability lookup, item COc1cc2nccc(Oc3ccc(NC(=O)Nc4cc(C)on4)c(Cl)c3)c2cc1OC [Tivozanib] + C[C@@H](Oc1cc(-c2cnn(C3CCNCC3)c2)cnc1N)c1c(Cl)ccc(F)c1Cl [Crizotinib] (partner 1 µM)
0.194

###

system: NCI-H1651; experiment: relative viability (nuclei count vs DMSO), 5 days (fraction); higher = more cells survive; settings: first compound 0.8 µM
Please respond with reported relative viability for every item in the list.
Just the number, please.

# relative viability lookup, item Cc1cnc(-c2cnc(NCCNc3ccc(C#N)cn3)nc2-c2ccc(Cl)cc2Cl)[nH]1 + CC1(C)CCC(c2ccc(Cl)cc2)=C(CN2CCN(c3ccc(C(=O)NS(=O)(=O)c4ccc(N[C@H](CCN5CCOCC5)CSc5ccccc5)c(S(=O)(=O)C(F)(F)F)c4)cc3)CC2)C1 [Navitoclax] (partner 0.5 µM)
1.06

# relative viability lookup, item O=c1[nH]c2ccccc2n1C1CCN(CCCC(c2ccc(F)cc2)c2ccc(F)cc2)CC1 [Pimozide] + C[C@]1(O)C[C@@H](c2nc(-c3ccc4ccc(-c5ccccc5)nc4c3)c3c(N)nccn32)C1 [Linsitinib] (partner 1 µM)
0.922

# relative viability lookup, item Cc1cnc(-c2cnc(NCCNc3ccc(C#N)cn3)nc2-c2ccc(Cl)cc2Cl)[nH]1 + CCNC(=O)c1noc(-c2cc(C(C)C)c(O)cc2O)c1-c1ccc(CN2CCOCC2)cc1 [Luminespib] (partner 0.01 µM)
0.762

# relative viability lookup, item O=c1[nH]c2ccccc2n1C1CCN(CCCC(c2ccc(F)cc2)c2ccc(F)cc2)CC1 [Pimozide] + C[C@@H](Oc1cc(-c2cnn(C3CCNCC3)c2)cnc1N)c1c(Cl)ccc(F)c1Cl [Crizotinib] (partner 1 µM)
0.818
